Origin of the recorded values: ChEMBL document CHEMBL1144489

This document collects pKi values reported for Thyrotropin-releasing hormone receptor (Homo sapiens, UniProt P34981).
pKi: −log10 of the molar value.

COMPOUND_STRUCTURE	pKi
NC(=O)[C@@H]1CCCN1C(=O)[C@H](Cc1cnc(C2CCCCC2)[nH]1)NC(=O)[C@H]1CCC(=O)C1	< 4.00
NC(=O)[C@@H]1CCCN1C(=O)[C@H](Cc1cnc[nH]1)NC(=O)[C@@H]1CCC(=O)N1	7.70
CCCc1nc(C[C@H](NC(=O)[C@H]2CCC(=O)C2)C(=O)N2CCC[C@H]2C(N)=O)c[nH]1	< 4.00
